Source: patent US12466821B2

Exercise: state measured pIC50 for each of the molecules provided.
target: human CMV DNA polymerase UL54 (Human cytomegalovirus (strain AD169) (HHV-5) (Human herpesvirus 5)); test: CMV polymerase biochemical assay (molecular beacon-based)
Please treat pIC50 as minus the base-10 logarithm of the molar concentration.

Req: Field request: pIC50 | item: CS(=O)(=O)CCCN1CCn2c(c(C#N)cc(C(=O)NCc3ccc(Cl)cc3)c2=O)C1=O
Resp: 5.92

Req: For the molecule O=C(NCc1ccc(Cl)cc1)c1ccc2n(c1=O)CCN(CC1(S(=O)(=O)C3CNC3)CC1)C2=O , what pIC50 is on record?
Resp: 8.41

Req: Consider the molecule shown here: CS(=O)(=O)C1(CN2CCn3c(c(C4CC4)cc(C(=O)NCc4ccc(Cl)cc4)c3=O)C2=O)CC1 What is its recorded pIC50?
Resp: 8.51

Req: Look up pIC50: CCS(=O)(=O)C1(CN2CCn3c(ccc(C(=O)NCc4ccc(C#N)cc4)c3=O)C2=O)CC1
Resp: 8.59

Req: What does the data say about its pIC50? Entry: N#Cc1ccc(CNC(=O)c2ccc3n(c2=O)CCN(CC2(S(=O)(=O)C4CCNC4)CC2)C3=O)cc1 (stereo not drawn)
Resp: 8.15

Req: Entry N#Cc1ccc(CNC(=O)c2ccc3n(c2=O)CCN(CC2(N4CCOC4=O)CC2)C3=O)cc1 : reported pIC50 = ?
Resp: 6.76

Req: I'd like to know its pIC50. The molecule in question is CS(=O)(=O)C1(CN2CCn3c(ccc(C(=O)NCC4CCC5(CC4)CC5)c3=O)C2=O)CC1
Resp: 7.36

Req: Tell me the measured pIC50 of CCS(=O)(=O)N(C)CCN1CCn2c(ccc(C(=O)NCc3ccc(Cl)cc3)c2=O)C1=O , please.
Resp: 6.86

Req: Which measured pIC50 value corresponds to Cc1cc(C(=O)NCc2ccc(Cl)cc2)c(=O)n2c1C(=O)N(CCN(C)S(C)(=O)=O)CC2 ?
Resp: 6.74

Req: Entry CS(=O)(=O)C1(CN2CCn3c(ccc(C(=O)NCc4ccc(Cl)cc4)c3=O)C2=O)CC1 : reported pIC50 = ?
Resp: 8.52

Req: Consider the molecule CCN1CCn2c(ccc(C(=O)NCc3ccc(Cl)cc3)c2=O)C1=O and give its measured pIC50.
Resp: 5.50

Req: Return reported pIC50; argument: CN(CCN1CCn2c(c(C#CCO)cc(C(=O)NCc3ccc(Cl)cc3)c2=O)C1=O)S(C)(=O)=O
Resp: 6.70

Req: Query (molecule): CN(C)S(=O)(=O)CCN1CCn2c(ccc(C(=O)NCc3ccc(Cl)cc3)c2=O)C1=O ; field requested: pIC50
Resp: 6.46

Req: Entry under review: O=C(NCc1ccc(Cl)cc1)c1ccc2n(c1=O)CCN(CC1(N3CCOCC3=O)CC1)C2=O . Reported pIC50?
Resp: 6.39

Req: Quick one: pIC50 of C[S@@+]([O-])C1(CN2CCn3c(ccc(C(=O)NCc4ccc(Cl)cc4)c3=O)C2=O)CC1 (single isomer, unassigned) ?
Resp: 7.45

====

biological target: human CMV DNA polymerase UL54 (Human cytomegalovirus (strain AD169) (HHV-5) (Human herpesvirus 5)); experiment: CMV polymerase biochemical assay (molecular beacon-based)
For each record, write down the corresponding IC50.
Field: numeric (nM). Do not append units.

Req: Which IC50 reading was recorded for the compound CCS(=O)(=O)CCN1CCn2c(ccc(C(=O)NCc3ccc(Cl)cc3)c2=O)C1=O [Example 53] ?
Resp: 149

Req: // IC50 lookup, key: O=C(NCc1ccc(Cl)cc1)c1ccc2n(c1=O)CCN(CC1(N3CCCCC3=O)CC1)C2=O [Example 202]
Resp: 305

Req: Which value of IC50 has been reported for N#Cc1ccc(CNC(=O)c2ccc3n(c2=O)CCN(CC2(S(=O)(=O)C4CCOCC4)CC2)C3=O)cc1 [Example 105-2] in the records?
Resp: 2.5

Req: Requested read-out: IC50. Entry: N#Cc1ccc(CNC(=O)c2ccc3n(c2=O)CCN(CC2(S(=O)(=O)[C@@H]4CC4(F)F)CC2)C3=O)cc1 (single isomer, unassigned) [Example 100-2]
Resp: 1

Req: So what's the measured IC50 for this one? CCc1cc(C(=O)NCc2ccc(Cl)cc2)c(=O)n2c1C(=O)N(CCN(C)S(C)(=O)=O)CC2 [Example 134]
Resp: 268

Req: GET /values?readout=IC50&item= Cc1cc(C(=O)NCc2ccc(Cl)cc2)c(=O)n2c1C(=O)N(CC1(N(C)S(C)(=O)=O)CC1)CC2 [Example 149]
Resp: 112

Req: Look up IC50: CCS(=O)(=O)NC1(CN2CCn3c(ccc(C(=O)NCc4ccc(Cl)cc4)c3=O)C2=O)CC1 [Example 199]
Resp: 53.7

Req: Fill blank: measured IC50 of the compound COCC1(CN2CCn3c(ccc(C(=O)NCc4ccc(Cl)cc4)c3=O)C2=O)CC1 [Example 69] is ____.
Resp: 656

Req: Please look up its IC50: CC1(S(=O)(=O)C2(CN3CCn4c(ccc(C(=O)NCc5ccc(C#N)cc5)c4=O)C3=O)CC2)CC1 [Example 94-1]
Resp: 0.6

Req: Any idea what its IC50 is? The compound is CS(=O)(=O)N1CCC1CN1CCn2c(ccc(C(=O)NCc3ccc(Cl)cc3)c2=O)C1=O (centres unmarked) [Example 66]
Resp: 112

Req: // lookup IC50 for CS(=O)(=O)CC1(CN2CCn3c(ccc(C(=O)NCc4ccc(Cl)cc4)c3=O)C2=O)CC1 [Example 173]
Resp: 20.6

Req: Can you share its IC50? I mean this compound: CN(CCN1CCn2c(c(C#N)cc(C(=O)NCc3ccc(Cl)cc3)c2=O)C1=O)S(C)(=O)=O [Example 127]
Resp: 545

Req: // lookup IC50 for N#Cc1ccc(CNC(=O)c2ccc3n(c2=O)CCN(CC2(S(=O)(=O)C4CC4(F)F)CC2)C3=O)cc1 (centres unmarked) [Example 98-1]
Resp: 1.5

Req: Look up IC50 for this compound: CS(=O)(=O)N(CCN1CCn2c(ccc(C(=O)NCc3ccc(Cl)cc3)c2=O)C1=O)C1CC1 [Example 115]
Resp: 747

Req: What does the record list as IC50 for CC1(CS(=O)(=O)C2(CN3CCn4c(ccc(C(=O)NCc5ccc(C#N)c(F)c5)c4=O)C3=O)CC2)CC1 [Example 109] ?
Resp: 3.2

Req: Which IC50 value belongs to CN1CCC(S(=O)(=O)C2(CN3CCn4c(ccc(C(=O)NCc5ccc(C#N)c(F)c5)c4=O)C3=O)CC2)C1 (centres unmarked) [Example 81-2] ?
Resp: 11.3

Req: // query IC50 value for entry N#CC1(CS(=O)(=O)C2(CN3CCn4c(ccc(C(=O)NCc5ccc(Cl)cc5)c4=O)C3=O)CC2)CC1 [Example 110]
Resp: 1.9

Req: Return reported IC50; argument: CCS(=O)(=O)C1(CN2CCn3c(ccc(C(=O)NCc4ccc(Cl)cc4)c3=O)C2=O)CC1 [Example 36]
Resp: 0.7

Req: Which IC50 value is on record for N#Cc1ccc(CNC(=O)c2ccc3n(c2=O)CCN(CC2(S(=O)(=O)[C@H]4CC4(F)F)CC2)C3=O)cc1Cl (single isomer, unassigned) [Example 102-1] ?
Resp: 2

Req: // IC50 lookup, key: O=C(NCc1ccc(Cl)cc1)c1ccc2n(c1=O)CCN(CC1(C(=O)N3CCCC3)CC1)C2=O [Example 210]
Resp: 25.7

Req: Recorded IC50 of CS(=O)(=O)CCN1CCn2c(c(C#N)cc(C(=O)NCc3ccc(Cl)cc3)c2=O)C1=O [Example 125] , please.
Resp: 566

Req: Give the measured IC50 of CC1(CS(=O)(=O)C2(CN3CCn4c(ccc(C(=O)NCc5ccc(C#N)c(F)c5)c4=O)C3=O)CC2)COC1 [Example 103-3] .
Resp: 10.8

Req: Dear colleague, I am looking for the recorded IC50 of the following compound: O=C(NCc1ccc(Cl)cc1)c1ccc2n(c1=O)CCN(CC1(S(=O)(=O)C3(F)CC3)CC1)C2=O [Example 76]
Resp: 1.9

Req: Value lookup for IC50; key = O=C(NCc1ccc(Cl)cc1)c1ccc2n(c1=O)CCN(CCN1CCCC1=O)C2=O [Example 56]
Resp: 312

Req: Need IC50 of N#Cc1ccc(CNC(=O)c2ccc3n(c2=O)CCN(CC2(S(=O)(=O)C4CCC4)CC2)C3=O)cc1 [Example 79-1] , thanks.
Resp: 1.3

Req: // returns reported IC50 for input N#Cc1ccc(CNC(=O)c2ccc3n(c2=O)CCN(CC2(S(=O)(=O)C4CNC4)CC2)C3=O)cc1F [Example 16]
Resp: 6.1

Req: Look up IC50 for this compound: C[S@](=N)(=O)C1(CN2CCn3c(ccc(C(=O)NCc4ccc(Cl)cc4)c3=O)C2=O)CC1 (single isomer, unassigned) [Example 96-2]
Resp: 66.5

Req: I have this compound here, N#Cc1ccc(CNC(=O)c2ccc3n(c2=O)CCN(CC2(S(=O)(=O)CC4(C#N)CC4)CC2)C3=O)cc1F [Example 112] , and I need its recorded IC50.
Resp: 2.2

Req: Name the reported IC50 value associated with the compound CS(=O)(=O)CCN1CCn2c(c(Br)cc(C(=O)NCc3ccc(Cl)cc3)c2=O)C1=O [Example 117]
Resp: 285
